Quick reference: koff of the listed items.
Molecular target: T1, human CD3E&G complex (Sino Biological Inc., CT041-H0305H) (human, UniProt P07766 23-126; P09693 23-116)
T1 construct: bought heterodimer; also called human CD3E&G antigen
T1 sequence (P07766 23-126, chain 1 of 2): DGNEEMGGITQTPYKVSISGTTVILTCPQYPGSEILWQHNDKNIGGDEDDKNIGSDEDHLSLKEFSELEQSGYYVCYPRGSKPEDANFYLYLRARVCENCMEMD
T1 sequence (P09693 23-116, chain 2 of 2): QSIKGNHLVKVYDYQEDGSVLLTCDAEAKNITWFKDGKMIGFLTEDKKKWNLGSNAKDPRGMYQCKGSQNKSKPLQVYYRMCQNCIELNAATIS
Assay: BLI, antibody on sensor
A number alone suffices; assume s⁻¹.

These recorded examples may help you get a feel for the data.
{"columns": ["BINDER", "REPORTED RESULT"],
 "data": [
  ["hzsp34.83 (antibody, human IgG1, lambda, L234A L235A, V domains shown, CDR mutant of hzsp34.24; IgG1 L234A L235A, lambda) VH: EVQLVESGGGLVQPGGSLKLSCAASGFTFNTYAMNWVRQASGKGLEWVGRIRSKANNYATYYADSVKDRFTISRDDSKSTLYLQMNSLKTEDTAVYYCARHGNFGQSYVSWFAYWGQGTTVTVSS VL: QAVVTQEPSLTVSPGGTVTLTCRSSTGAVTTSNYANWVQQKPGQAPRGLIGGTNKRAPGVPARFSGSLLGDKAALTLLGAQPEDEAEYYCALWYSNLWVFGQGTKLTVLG", 0.000791],
  ["hzsp34.107 (antibody, human IgG1, lambda, L234A L235A, V domains shown, CDR mutant of hzsp34.24; IgG1 L234A L235A, lambda) VH: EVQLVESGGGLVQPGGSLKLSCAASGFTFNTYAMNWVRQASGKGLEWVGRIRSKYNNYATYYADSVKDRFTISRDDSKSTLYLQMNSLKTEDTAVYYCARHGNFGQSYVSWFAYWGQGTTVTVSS VL: QAVVTQEPSLTVSPGGTVTLTCRSSTGAVTTSNYANWVQQKPGQAPRGLIGGTNKRAPGVPARFSGSLLGDKAALTLLGAQPEDEAEYYCALAYSNLWVFGQGTKLTVLG", 0.00446]
]}

// below: koff requested for another binder
Item sp34 (antibody, human IgG1, lambda, L234A L235A, V domains shown, mouse variable regions on human IgG1 L234A L235A and lambda constant regions; also called chimeric antibody sp34; mouse sp34) VH: EVQLVESGGGLVQPKGSLKLSCAASGFTFNTYAMNWVRQAPGKGLEWVARIRSKYNNYATYYADSVKDRFTISRDDSQSILYLQMNNLKTEDTAMYYCVRHGNFGNSYVSWFAYWGQGTLVTVSS VL: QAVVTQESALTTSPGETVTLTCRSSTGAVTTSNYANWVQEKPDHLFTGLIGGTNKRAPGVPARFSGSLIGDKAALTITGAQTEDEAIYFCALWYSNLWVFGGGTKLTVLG : provide koff 0.00149

Just for reference, patent US20230374132A1 is where these values come from.
